Biological target: T1, HER2 protein (human epidermal growth factor receptor 2) (human, UniProt P04626 23-652)
T1 construct: Human epidermal growth factor receptor 2 (HER2), bought protein; Surmise: the bought protein is probably a soluble extracellular domain, possibly tagged; source: bought: Sino Biological Inc., China
Test: SPR; SPR imaging (SPRi, PlexArray HT); peptides immobilised through an N-terminal cysteine on a bare gold chip, blocked with 5% nonfat milk; HER2 or HSA in PBST flowed at 0.625 to 20 μg/mL; KD from fitting association-dissociation curves
Conditions: both partners purified
Listed here are binders together with their documented Kd.

{"binder": "CEWVADVNPNSGGFIYNQYFK (a cysteine residue linked to the amino terminal, for attachment to the bare gold chip; numbers count on: pertuzumab (first letter is 46); source: synthetic peptide (Fmoc solid phase synthesis, HPLC purified)) [peptide 58F63Y with N-terminal cysteine, for SPRi]", "Kd, µM": 0.536}
{"binder": "CEWVADVNPNVGGSIYNQYFK (a cysteine residue linked to the amino terminal, for attachment to the bare gold chip; numbers count on: pertuzumab (first letter is 46); source: synthetic peptide (Fmoc solid phase synthesis, HPLC purified)) [peptide 55V63Y with N-terminal cysteine, for SPRi]", "Kd, µM": 8.16}
{"binder": "CEWVADVNPNSGGFIYNQRFK (a cysteine residue linked to the amino terminal, for attachment to the bare gold chip; numbers count on: pertuzumab (first letter is 46); source: synthetic peptide (Fmoc solid phase synthesis, HPLC purified)) [peptide 58F (4665 with Ser58 to Phe) with N-terminal cysteine, for SPRi]", "Kd, µM": 1.32}
{"binder": "CEWVADVNPNSGGSIYNQYFK (a cysteine residue linked to the amino terminal, for attachment to the bare gold chip; numbers count on: pertuzumab (first letter is 46); source: synthetic peptide (Fmoc solid phase synthesis, HPLC purified)) [peptide 63Y (4665 with Arg63 to Tyr) with N-terminal cysteine, for SPRi]", "Kd, µM": 1.54}
{"binder": "CEWVADVNPNVGGSIYNQRFK (a cysteine residue linked to the amino terminal, for attachment to the bare gold chip; numbers count on: pertuzumab (first letter is 46); source: synthetic peptide (Fmoc solid phase synthesis, HPLC purified)) [peptide 55V (4665 with Ser55 to Val) with N-terminal cysteine, for SPRi]", "Kd, µM": 64.6}
{"binder": "CEWVADVNPNSGGSIYNQRFK (a cysteine residue linked to the amino terminal, for attachment to the bare gold chip; fragment of pertuzumab from Glu46 to Lys65 (beta hairpin); numbers count on: pertuzumab in PDB 1S78; source: synthetic peptide (Fmoc solid phase synthesis, HPLC purified)) [peptide 4665 (pertuzumab fragment Glu46 to Lys65) with N-terminal cysteine, for SPRi]", "Kd, µM": 9.86}
